The values you see were collected from PubChem BioAssay (NCI).

Recorded TGI by entry
System: BT-549 breast
Test: NCI tumour cell line growth inhibition, 48 h
property label: TGI (µM)

[
  {
    "compound": "O=C1O[C@H]2C3C4CCC(C4[C@@H]2I)[C@H]13 (stereo not given in full)",
    "sign qualifier": ">",
    "assay result": 100
  },
  {
    "compound": "CCN(CC)c1ccc2cc(C(N)=O)c(=Nc3ccc(F)cc3)oc2c1",
    "sign qualifier": ">",
    "assay result": 100
  },
  {
    "compound": "CCN(CC)C1Oc2cc3c(cc2C(c2cccc(OC)c2O)C1C)OCO3 (stereo not given)",
    "sign qualifier": ">",
    "assay result": 44.9
  },
  {
    "compound": "CN(C)CC1CCCCCC(Br)C1=O (stereo not given)",
    "sign qualifier": "=",
    "assay result": 26.4
  },
  {
    "compound": "O=C(c1ccco1)c1nc2cc(C(F)(F)F)ccc2[n+]([O-])c1C(F)(F)F",
    "sign qualifier": ">",
    "assay result": 100
  },
  {
    "compound": "COc1cc(-c2nc(-c3ccc(-c4nc5ccc(F)cc5[nH]4)cc3)no2)cc(OC)c1OC",
    "sign qualifier": "=",
    "assay result": 11.1
  },
  {
    "compound": "CCn1c(=O)c2c3ccc(OC)cc3[nH]c2c2ccc(OC)cc21",
    "sign qualifier": ">",
    "assay result": 100
  },
  {
    "compound": "CCCCCCCCCCCC1=NC(C)(C)CN1CC(C)O (stereo not given)",
    "sign qualifier": "=",
    "assay result": 22.2
  },
  {
    "compound": "C[C@]12CC[C@H](O)CC1=CC[C@@H]1[C@@H]2CC[C@]2(C)C(=O)/C(=C/c3ccc([N+](=O)[O-])cc3)C[C@@H]12",
    "sign qualifier": "=",
    "assay result": 57.5
  },
  {
    "compound": "O=C1CC(C(COCc2ccccc2)OCc2ccccc2)CC(=O)N1 (stereo not given)",
    "sign qualifier": ">",
    "assay result": 100
  }
]

###

Tested on: CAKI-1 renal
Experiment: NCI tumour cell line growth inhibition, 48 h
Recorded TGI by entry
property label: TGI (µM)

[
  {
    "molecule": "Nc1ccccc1OCCCOc1ccccc1N",
    "target system": "CAKI-1 renal",
    "property label": "TGI",
    "sign qualifier": ">",
    "assay result": 100
  },
  {
    "molecule": "CC(=O)N1C(Nc2cccc3nc(C)ccc23)CCN1c1ccccc1 (stereo not drawn)",
    "target system": "CAKI-1 renal",
    "property label": "TGI",
    "sign qualifier": ">",
    "assay result": 10
  },
  {
    "molecule": "c1ccc2c(c1)Sc1ccccc1N2C1CN2CCC1CC2 (stereo not drawn)",
    "target system": "CAKI-1 renal",
    "property label": "TGI",
    "sign qualifier": "=",
    "assay result": 33.9
  },
  {
    "molecule": "CC(C)=CC(=O)N[C@@H]1CC2CCC3C(CC[C@@]4(C)C3CC[C@@H]4C(C)N(C)C)[C@@]2(C)C[C@@H]1O (stereo partly drawn)",
    "target system": "CAKI-1 renal",
    "property label": "TGI",
    "sign qualifier": "=",
    "assay result": 23.9
  },
  {
    "molecule": "COc1ccc(/C=C\\c2cc(OC)c(OC)c(OC)c2)cc1OCC(=O)Nc1nc2ccccc2s1",
    "target system": "CAKI-1 renal",
    "property label": "TGI",
    "sign qualifier": ">",
    "assay result": 35.8
  },
  {
    "molecule": "Cc1cn([C@H]2C[C@H](O)[C@@H](CO)O2)c(=O)nc1N",
    "target system": "CAKI-1 renal",
    "property label": "TGI",
    "sign qualifier": ">",
    "assay result": 100
  },
  {
    "molecule": "Cc1cc(NCc2cc(Nc3ccnc4cc(Cl)ccc34)ccc2F)nc(N2CCSCC2)n1",
    "target system": "CAKI-1 renal",
    "property label": "TGI",
    "sign qualifier": "=",
    "assay result": 3.19
  },
  {
    "molecule": "CC(=O)O[C@H]1C[C@](C)(O)[C@@]23CC([C@@H](OC(=O)C(C)(C)O)[C@@H](OC(C)=O)C2(COC(=O)c2ccccc2)[C@H]1OC(C)=O)C(C)(C)O3 (stereo partly drawn)",
    "target system": "CAKI-1 renal",
    "property label": "TGI",
    "sign qualifier": ">",
    "assay result": 100
  },
  {
    "molecule": "Nc1c(C(=O)NC23CC4CC(CC(C4)C2)C3)[n+]([O-])c2ccccc2[n+]1[O-]",
    "target system": "CAKI-1 renal",
    "property label": "TGI",
    "sign qualifier": ">",
    "assay result": 100
  },
  {
    "molecule": "O=C(Nc1ccc(Oc2ccc(NC(=O)Nc3ccc([N+](=O)[O-])cc3)cc2)cc1)Nc1ccc([N+](=O)[O-])cc1",
    "target system": "CAKI-1 renal",
    "property label": "TGI",
    "sign qualifier": "=",
    "assay result": 7.55
  },
  {
    "molecule": "COc1cc(OC)c(F)c(COc2cnc(Nc3cnn(CCO)c3)nc2)c1F",
    "target system": "CAKI-1 renal",
    "property label": "TGI",
    "sign qualifier": "=",
    "assay result": 2.87
  },
  {
    "molecule": "Cn1cnc(SC2=C3C(=O)C=C4S[C@H]5C[C@]42c2c(c(O)c4c6c2=[N+]3CCC=6C=N4)N5)c1CC(N)C(=O)O (stereo partly drawn)",
    "target system": "CAKI-1 renal",
    "property label": "TGI",
    "sign qualifier": "=",
    "assay result": 79.1
  },
  {
    "molecule": "Clc1ccc2nc(Cl)c3ccccc3c2c1",
    "target system": "CAKI-1 renal",
    "property label": "TGI",
    "sign qualifier": ">",
    "assay result": 100
  },
  {
    "molecule": "CO[C@]12CC(=O)C3(C(C[C@H]4CC5CC[C@H]6C[C@@H](OC(C)=O)CC[C@]6(OC(C)=O)C5C[C@@]43C)C1)C1C[C@H]3[C@@H]4CC[C@H]5C[C@@H](OC(C)=O)CC[C@]5(OC(C)=O)[C@H]4CC[C@]3(C)C12 (stereo partly drawn)",
    "target system": "CAKI-1 renal",
    "property label": "TGI",
    "sign qualifier": ">",
    "assay result": 100
  },
  {
    "molecule": "O=C(CC(c1ccccc1)C(C(=O)c1ccncc1)C(CC(=O)c1ccncc1)c1ccccc1)c1ccncc1 (stereo not drawn)",
    "target system": "CAKI-1 renal",
    "property label": "TGI",
    "sign qualifier": ">",
    "assay result": 100
  },
  {
    "molecule": "OCCn1cc(-c2cnc3nnn(Cc4ccc5ncccc5c4)c3n2)cn1",
    "target system": "CAKI-1 renal",
    "property label": "TGI",
    "sign qualifier": ">",
    "assay result": 100
  },
  {
    "molecule": "CC(=O)OCC1OC(SC2=NC(=O)/C(=C/c3ccccc3)S2)C(OC(C)=O)C(OC(C)=O)C1OC(C)=O (stereo not drawn)",
    "target system": "CAKI-1 renal",
    "property label": "TGI",
    "sign qualifier": "=",
    "assay result": 12
  },
  {
    "molecule": "O=C(Oc1ccccc1Cl)c1ccccc1Nc1cccc(C(F)(F)F)c1",
    "target system": "CAKI-1 renal",
    "property label": "TGI",
    "sign qualifier": "=",
    "assay result": 49
  }
]

###

Tested on: A549 NSCLC
Experiment: NCI tumour cell line growth inhibition, 48 h
Recorded GI50 by entry

[
  {
    "molecule": "O=C(Oc1ccccc1Cl)c1ccccc1Nc1cccc(C(F)(F)F)c1",
    "GI50": "36000 nM"
  },
  {
    "molecule": "CN(C)c1ccc(Nc2c3ccccc3nc3cc(NC(=O)CCN4CCCC4)ccc23)cc1",
    "GI50": "68.8 nM"
  },
  {
    "molecule": "COc1ccc(/C=N\\NC(=O)c2ccc3nc(-c4ccc(Cl)cc4)[nH]c3c2)cc1",
    "GI50": "2460 nM"
  },
  {
    "molecule": "Fc1ccc([C@@H]2CCNC[C@H]2COc2ccc3c(c2)OCO3)cc1",
    "GI50": "14600 nM"
  },
  {
    "molecule": "Cc1cc(NCc2cc(Nc3ccnc4cc(Cl)ccc34)ccc2F)nc(N2CCSCC2)n1",
    "GI50": "2920 nM"
  },
  {
    "molecule": "O=C1CC(c2ccsc2)c2snc(-c3ccc(Cl)cc3)c2N1 (configuration not stated)",
    "GI50": "626 nM"
  },
  {
    "molecule": "Nc1nccc2c1ccn2-c1cccc(NC(=O)c2ccc(N3CCOCC3)c(C(F)(F)F)c2)c1",
    "GI50": "922 nM"
  }
]
